ASSAY_TEXT: Clearance in C57BL/6J mouse at 1.4 mg/kg, iv by UPLC-MS/MS analysis
EXPERIMENTAL_PARAMETERS: in vivo
PROPERTY_LABEL: clearance (mL/min/kg)
One number for each entry, in mL/min/kg.

Q: Requested read-out: clearance. Entry: COC(=O)Nc1nc(C)c(S(=O)(=O)N2CCN(C[C@H](C)Nc3ncnc4c(C)csc34)CC2)s1
Result: 0.82

* * *

ASSAY_TEXT: in vitro
EXPERIMENTAL_PARAMETERS: C57BL/6J, mouse, liver microsomes
Description: Intrinsic clearance in C57BL/6J mouse liver microsomes at 0.5 uM in presence of NADPH regenerating system measured for 45 mins per mg protein by LC-MS/MS analysis
Please provide measured microsomal CLint at 0.75 h, 0.5 µM for the entries that follow.
Give bare numbers, in µL/min/mg.

Solved entries (count: 2):
SMILES_ENTRY | UNIT_ABBREVIATION | NUMERIC_VALUE
COC(=O)Nc1nc(C)c(S(=O)(=O)N2CCN(C[C@H](C)Nc3ncnc4c(C)csc34)CC2)s1 | µL/min/mg | 156
COC(=O)Nc1nc(C)c(S(=O)(=O)N2CCN(C[C@H](C)Nc3ncnc4c(-c5cccc(CN(C)C)c5)cccc34)CC2)s1 | µL/min/mg | 108

Now consider the entry below.
Q: Requested read-out: microsomal CLint at 0.75 h, 0.5 µM. Entry: COC(=O)Nc1nc(C)c(S(=O)(=O)N2CCN(C[C@H](C)Nc3ncnc4c(-c5cccc(CN6CCCC6)c5)cccc34)CC2)s1
Result: 133

// data source = ChEMBL document CHEMBL5385906
